Target: 5-HT2A receptors (Rattus norvegicus)
Construct: the tissue used is the frontal cortex of the rat; from tissue; host or cells: rat frontal cortex
Sequence (P14842 whole entry): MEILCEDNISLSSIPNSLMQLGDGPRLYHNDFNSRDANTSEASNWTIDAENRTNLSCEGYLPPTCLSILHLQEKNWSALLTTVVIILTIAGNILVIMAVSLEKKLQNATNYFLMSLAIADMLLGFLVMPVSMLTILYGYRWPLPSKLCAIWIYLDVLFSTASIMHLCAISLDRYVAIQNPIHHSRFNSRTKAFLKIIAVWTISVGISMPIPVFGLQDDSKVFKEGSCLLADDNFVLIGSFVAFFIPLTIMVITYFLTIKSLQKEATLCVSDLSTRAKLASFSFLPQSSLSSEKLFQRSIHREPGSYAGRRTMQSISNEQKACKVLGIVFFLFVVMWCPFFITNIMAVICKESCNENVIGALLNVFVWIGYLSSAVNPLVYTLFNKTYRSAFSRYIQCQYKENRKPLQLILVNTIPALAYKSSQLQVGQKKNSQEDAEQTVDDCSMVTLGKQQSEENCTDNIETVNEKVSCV
Test: In vitro binding affinity for 5-HT2A receptor (3H-ketanserin radioligand binding)
Settings: frontal cortex of the rat, read-out: 5-HT2A (pIC50) (converted)
Classification field. Basis: IC50. Definitions: class 0 = under 10 nM, class 1 = from 10 nM up to 80 nM, class 2 = 80 nM and over

Check out these entries, answers already filled in.
Ask | Band for OCCC1CCN(CC2CC3c4ccccc4Sc4sccc4C3O2)CC1 (centres unmarked) ?
Reply | class 0

Ask | What about this compound? CN(CCO)C[C@H]1C[C@H]2c3ccccc3Sc3sccc3[C@@H]2O1 (relative stereo)
Reply | class 1

Ask | Then CCOC(=O)c1cc2c(s1)Sc1ccccc1C1CC(CN(C)C)OC21 (centres unmarked) ?
Reply | class 2

Ask | How about this compound: CN(C)CC1CC2c3ccccc3Cc3ccsc3C2O1 (centres unmarked)
Reply | class 0

---
Ask | Note: place this compound into its band. Item: CNC[C@H]1C[C@H]2c3ccccc3Sc3sccc3[C@@H]2O1 (relative stereo)
Reply | class 0

Ask | Same thing, different compound: c1ccc2c(c1)Sc1sccc1[C@@H]1O[C@@H](CN3CCC4(CC3)OCCO4)C[C@@H]21 (relative stereo)
Reply | class 0

Ask | Query CN(C)CC1CC2c3ccccc3Cc3sccc3C2O1 (centres unmarked) next
Reply | class 2

Ask | Entry OC1CCN(C[C@H]2C[C@H]3c4ccccc4Sc4sccc4[C@@H]3O2)C1 (relative stereo) please
Reply | class 0

Ask | Entry to check: OCCN1CCN(C[C@H]2C[C@@H]3c4ccccc4Sc4sccc4[C@H]3O2)CC1 (relative stereo)
Reply | class 2

Ask | Another compound to check: CN(CCO)C[C@H]1C[C@@H]2c3ccccc3Sc3sccc3[C@H]2O1 (relative stereo)
Reply | class 1

Ask | Note, next up: CNCC1CC2c3ccccc3Cc3sccc3C2O1 (centres unmarked) [Compound 7]
Reply | class 2

Ask | Okay, and CN(C)CC1CC2c3ccccc3Sc3sccc3C2O1 (centres unmarked) ?
Reply | class 1

Ask | # repeat for CNCC1CC2c3ccccc3Cc3sccc3C2O1 (centres unmarked) [Compound 8]
Reply | class 2

Ask | Consider next the compound c1ccc2c(c1)Sc1sccc1[C@H]1O[C@@H](CN3CCC4(CC3)OCCO4)C[C@H]21 (relative stereo) in the same way.
Reply | class 1

Ask | Ok, now CN(C)C[C@@H]1C[C@@H]2c3ccccc3Sc3sccc3[C@H]2O1
Reply | class 0

* * *

Target: NET (Rattus norvegicus)
Construct: Cortex from rat brain was collected and homogenised; from tissue; host or cells: rat brain cortex
Sequence (Q63380 1-617): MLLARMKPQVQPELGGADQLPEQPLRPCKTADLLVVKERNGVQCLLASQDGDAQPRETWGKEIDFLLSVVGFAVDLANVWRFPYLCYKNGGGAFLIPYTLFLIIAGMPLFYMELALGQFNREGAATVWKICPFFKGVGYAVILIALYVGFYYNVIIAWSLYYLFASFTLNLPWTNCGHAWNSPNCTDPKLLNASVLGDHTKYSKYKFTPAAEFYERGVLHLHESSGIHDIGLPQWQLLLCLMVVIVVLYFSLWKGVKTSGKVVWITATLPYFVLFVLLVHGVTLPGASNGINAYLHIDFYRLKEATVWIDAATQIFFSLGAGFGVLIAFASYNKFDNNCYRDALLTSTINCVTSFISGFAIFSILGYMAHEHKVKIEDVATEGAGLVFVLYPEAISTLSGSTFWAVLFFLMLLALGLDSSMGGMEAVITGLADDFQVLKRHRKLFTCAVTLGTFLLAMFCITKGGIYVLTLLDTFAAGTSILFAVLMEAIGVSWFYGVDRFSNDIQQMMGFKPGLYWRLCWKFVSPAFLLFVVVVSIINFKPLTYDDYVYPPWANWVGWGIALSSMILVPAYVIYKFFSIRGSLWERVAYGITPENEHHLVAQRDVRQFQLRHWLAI
Experiment: In vitro determination of NET reuptake inhibition ([3H]Nixosetine binding)
Details: rat brain cortex membranes, read-out: NET-inhibition (pIC50) (converted)
Hi there, I'd appreciate the recorded IC50 for every entry that follows.
One number for each entry, in µM.

Solved cases below.
Ask | What does the record list as IC50 for CN(C)CC1CC2c3ccccc3Cc3ccsc3C2O1 (stereo not drawn) ?
Reply | 0.501

Ask | Next compound: CN(C)CC1CC2c3ccccc3Cc3sccc3C2O1 (stereo not drawn)
Reply | 1

Ask | Note, next up: CNCC1CC2c3ccccc3N(Cc3ccccc3)c3ncccc3C2O1 (stereo not drawn) [Compound 36]
Reply | 5.01

Ask | Next entry: CNCC1CC2c3ccccc3Sc3sccc3C2O1 (single isomer, unassigned)
Reply | 1

Ask | Check CN(C)C[C@H]1C[C@@H]2c3ccccc3Sc3sc(CO)cc3[C@H]2O1 (racemic) too.
Reply | 0.398

Your task in this section: give IC50 for each listed record.
1. CCOC(=O)c1cc2c(s1)Sc1ccccc1C1CC(CN(C)C)OC21 (stereo not drawn)
2. CNCC1CC2c3ccccc3N(Cc3ccccc3)c3ncccc3C2O1 (mixture of isomers) [Compound 37]
3. CN(C)C[C@@H]1C[C@@H]2c3ccccc3Sc3sccc3[C@H]2O1
4. OC1CCN(C[C@H]2C[C@H]3c4ccccc4Sc4sccc4[C@@H]3O2)C1 (relative stereo)
5. COC(=O)c1cc2c(s1)Sc1ccccc1[C@H]1C[C@H](CN(C)C)O[C@H]21
6. CN(C)CC1CC2c3ccccc3Sc3sccc3C2O1 (stereo not drawn)

Reply |
1. 2.51
2. 1.26
3. 0.0631
4. 3.16
5. 0.631
6. 0.316
